- Test system: spleen of an apoaequorin transgenic mouse
- test.description: Intracellular calcium (aequorin luminescence) in spleen pieces of apoaequorin transgenic mouse
- Type: cell-based
- test.context: final concentration 10 μmol/l
parameter: luminescence (intracellular calcium increase)

>>> readout_value("H-Met-Leu-Glu-Lys-Leu-Gly-Val-Pro-Lys-Thr-His-Leu-Glu-Leu-Lys-Lys-Leu-Ile-Gly-Glu-Val-Ser-Ser-Gly-Ser-Gly-Glu-Thr-Phe-Ser-Tyr-Pro-Asp-Phe-Leu-Arg-Met-Met-Leu-NH2 (H-MLEKLGVPKTHLELKKLIGEVSSGSGETFSYPDFLRMML-NH2) [Peptide 1]")
"Strong luminescence"
>>> readout_value("H-Met-Leu-Glu-Lys-Leu-Gly-Val-Pro-Lys-Thr-His-Leu-Glu-Leu-Lys-Arg-Leu-Ile-Arg-Glu-Val-Ser-Ser-Gly-Ser-Glu-Glu-Thr-Phe-Ser-Tyr-Ser-Asp-Phe-Leu-Arg-Met-Met-Leu-NH2 (H-MLEKLGVPKTHLELKRLIREVSSGSEETFSYSDFLRMML-NH2) [Peptide 2]")
"Strong luminescence"

====

- Tested on: skull (cranial bone) of an apoaequorin transgenic mouse
- test.description: Intracellular calcium (aequorin luminescence) in skull (cranial bone) pieces of apoaequorin transgenic mouse
- Type: cell-based
- test.context: final concentration 10 μmol/l
parameter: luminescence (intracellular calcium increase)

>>> readout_value("H-Met-Leu-Glu-Lys-Leu-Gly-Val-Pro-Lys-Thr-His-Leu-Glu-Leu-Lys-Lys-Leu-Ile-Gly-Glu-Val-Ser-Ser-Gly-Ser-Gly-Glu-Thr-Phe-Ser-Tyr-Pro-Asp-Phe-Leu-Arg-Met-Met-Leu-NH2 (H-MLEKLGVPKTHLELKKLIGEVSSGSGETFSYPDFLRMML-NH2) [Peptide 1]")
"Strong luminescence"
>>> readout_value("H-Met-Met-Glu-Lys-Leu-Gly-Val-Pro-Lys-Thr-His-Leu-Glu-Met-Lys-Lys-Met-Ile-Ser-Glu-Val-Thr-Gly-Gly-Val-Ser-Asp-Thr-Ile-Ser-Tyr-Arg-Asp-Phe-Val-Asn-Met-Met-Leu-NH2 (H-MMEKLGVPKTHLEMKKMISEVTGGVSDTISYRDFVNMML-NH2) [Peptide 3]")
"Strong luminescence"

====

- Test system: spleen of an apoaequorin transgenic mouse
- test.description: Intracellular calcium (aequorin luminescence) in spleen pieces of apoaequorin transgenic mouse
- Assay type: cell-based
- test.context: final concentration 10 μmol/l
[ ]: non-standard residue; d: D form. LYB = not defined here
parameter: luminescence (intracellular calcium increase)

>>> readout_value("H-Leu-Ser-Pro-His-Thr-Lys-Leu-Ser-Tyr-Gly-Glu-Gly-Val-Phe-Leu-Arg-Leu-Ser-Lys-Ser-Glu-Gly-Leu-Met-Glu-Ile-Lys-Leu-Met-Glu-Asp-Leu-Met-Val-Phe-Pro-Lys-Thr-Gly-NH2 (H-LSPHTKLSYGEGVFLRLSKSEGLMEIKLMEDLMVFPKTG-NH2) [Peptide 1S]")
"not detected"
>>> readout_value("H-Leu-Ser-Pro-His-Thr-Lys-Leu-Ser-Tyr-Arg-Glu-Glu-Val-Phe-Leu-Arg-Leu-Ser-Lys-Ser-Glu-Gly-Leu-Met-Glu-Ile-LYB-Leu-Met-Glu-Asp-Leu-Met-val-Phe-Ser-Arg-Thr-Gly-NH2 (H-LSPHTKLSYREEVFLRLSKSEGLMEI[LYB]LMEDLM[dV]FSRTG-NH2; reading uncertain) [Peptide 2S]")
"not detected"
